Sourced from paper PMC4897640

- ASSAYED SYSTEM: HiBgl3C (Mycothermus thermophilus)
- Construct: the same GenBank number is also printed for Hibgl3B
- Sequence (A0A191KCR0 18-733): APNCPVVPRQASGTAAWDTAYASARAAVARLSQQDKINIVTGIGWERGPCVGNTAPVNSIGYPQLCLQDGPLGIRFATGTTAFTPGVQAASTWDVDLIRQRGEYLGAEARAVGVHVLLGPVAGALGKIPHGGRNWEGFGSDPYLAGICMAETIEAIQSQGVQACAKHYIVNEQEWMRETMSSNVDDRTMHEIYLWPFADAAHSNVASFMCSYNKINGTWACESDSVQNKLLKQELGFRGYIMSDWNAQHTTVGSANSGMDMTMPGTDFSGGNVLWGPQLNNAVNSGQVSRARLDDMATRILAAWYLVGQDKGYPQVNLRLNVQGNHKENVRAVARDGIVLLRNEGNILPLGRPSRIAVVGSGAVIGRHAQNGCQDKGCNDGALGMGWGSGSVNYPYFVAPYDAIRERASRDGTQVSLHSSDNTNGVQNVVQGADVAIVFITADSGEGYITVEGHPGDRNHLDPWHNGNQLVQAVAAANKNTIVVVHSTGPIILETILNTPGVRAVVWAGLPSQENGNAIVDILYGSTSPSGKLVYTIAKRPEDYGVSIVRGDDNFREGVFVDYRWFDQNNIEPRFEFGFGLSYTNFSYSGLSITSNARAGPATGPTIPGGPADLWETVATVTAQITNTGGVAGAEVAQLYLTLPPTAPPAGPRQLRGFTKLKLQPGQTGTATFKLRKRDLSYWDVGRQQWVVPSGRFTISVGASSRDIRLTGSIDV
- EXPERIMENT NOTES: pNPG hydrolysis, Dixon plot
- Assay type: biochemical
- CONDITION: read-out: Ki (mM) / pNPG; substrate pNPG 0.75 and 1 mM, glucose 5-50 mM; product inhibition, mode not stated
PROPERTY MEASURED: Ki (mM)
Number only, in mM; omit the unit.

Problem: Given OC[C@H]1OC(O)[C@H](O)[C@@H](O)[C@@H]1O (stereo partly shown) [glucose] , state its recorded Ki.
Result: 37.1
